Where do these numbers come from? They come from ChEMBL document CHEMBL1152958.

Please respond with reported inhibition for every item in the list.
- Assay target: Polyunsaturated fatty acid 5-lipoxygenase (Homo sapiens) (UniProt P09917)
- Sequence (whole entry): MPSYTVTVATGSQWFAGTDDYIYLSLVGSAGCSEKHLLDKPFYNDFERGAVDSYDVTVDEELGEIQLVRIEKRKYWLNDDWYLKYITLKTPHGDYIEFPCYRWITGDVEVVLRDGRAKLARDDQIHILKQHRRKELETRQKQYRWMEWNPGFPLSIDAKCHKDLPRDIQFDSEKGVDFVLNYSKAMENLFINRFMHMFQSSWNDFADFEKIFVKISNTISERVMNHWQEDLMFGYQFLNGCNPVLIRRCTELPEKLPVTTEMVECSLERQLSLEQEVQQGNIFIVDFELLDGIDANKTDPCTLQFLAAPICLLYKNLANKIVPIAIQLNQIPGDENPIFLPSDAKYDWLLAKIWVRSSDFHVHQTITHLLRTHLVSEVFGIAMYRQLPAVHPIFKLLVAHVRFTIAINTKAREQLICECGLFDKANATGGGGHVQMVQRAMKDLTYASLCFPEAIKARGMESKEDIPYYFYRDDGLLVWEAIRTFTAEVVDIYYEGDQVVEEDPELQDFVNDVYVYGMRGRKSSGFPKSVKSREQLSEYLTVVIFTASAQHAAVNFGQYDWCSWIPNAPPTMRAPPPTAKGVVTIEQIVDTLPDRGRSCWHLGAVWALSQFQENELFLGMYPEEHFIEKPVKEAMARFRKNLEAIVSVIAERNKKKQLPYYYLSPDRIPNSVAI
- Experiment summary: Inhibition of 5LOX-mediated LTB4 formation in stimulated human polymorphonuclear leukocytes at 8 uM
Write the answer as a number in %, unit excluded.

In: Return reported inhibition for target or system Polyunsaturated fatty acid 5-lipoxygenase (Homo sapiens) (UniProt P09917), item CCCc1ccc(O)c(-c2ccc(OC)c(CCC)c2)c1 .
Out: 97.1

In: Name the value of inhibition reported for CCCc1ccc(OC)c(-c2ccc(OC)c(CCC)c2)c1 when tested on Polyunsaturated fatty acid 5-lipoxygenase (Homo sapiens) (UniProt P09917).
Out: 24.4

In: GET inhibition | system: Polyunsaturated fatty acid 5-lipoxygenase (Homo sapiens) (UniProt P09917) | item: C=CCc1ccc(OC(C)=O)c(-c2ccc(OC)c(CC=C)c2)c1
Out: 76.3

In: Please look at C=CCc1ccc(O)c(-c2ccc(O)c(/C=C/C)c2)c1 and tell me its recorded inhibition on Polyunsaturated fatty acid 5-lipoxygenase (Homo sapiens) (UniProt P09917).
Out: 100

In: Look up and report inhibition, with Polyunsaturated fatty acid 5-lipoxygenase (Homo sapiens) (UniProt P09917) as system, for C=CCc1ccc(O)c(-c2ccc(OC)c(CC=C)c2)c1
Out: 96.4

In: Find the measured inhibition of C=CCc1ccc(OC(C)=O)c(-c2ccc(OC(C)=O)c(CC=C)c2)c1 with Polyunsaturated fatty acid 5-lipoxygenase (Homo sapiens) (UniProt P09917) as test system.
Out: 64.9

In: For Polyunsaturated fatty acid 5-lipoxygenase (Homo sapiens) (UniProt P09917), give the measured inhibition of the entry CCCc1ccc(O)c(-c2ccc(O)c(CCC)c2)c1
Out: 99.9

In: Give reported inhibition for C=CCc1ccc(O)c(-c2ccc(OC)c(/C=C/C)c2)c1 (Polyunsaturated fatty acid 5-lipoxygenase (Homo sapiens) (UniProt P09917))
Out: 99.3

In: Provide inhibition, system Polyunsaturated fatty acid 5-lipoxygenase (Homo sapiens) (UniProt P09917), entry C=CCc1ccc(O)c(-c2ccc(O)c(CC=C)c2)c1
Out: 94

In: Enter measured inhibition, system Polyunsaturated fatty acid 5-lipoxygenase (Homo sapiens) (UniProt P09917), for the compound shown: C=CCc1ccc(O)c(-c2ccc(OC)c(/C=C\C)c2)c1
Out: 99.9

In: // fetch inhibition for C=CCc1ccc(OC)c(-c2ccc(OC)c(CC=C)c2)c1 ; system: Polyunsaturated fatty acid 5-lipoxygenase (Homo sapiens) (UniProt P09917)
Out: 27.8
